Target: T1, IL-18 receptors on HEK-Blue IL-18 reporter cells (UniProt Q13478 19-541; O95256 20-599, limits assumed)
T1 sequence (looked up) 1: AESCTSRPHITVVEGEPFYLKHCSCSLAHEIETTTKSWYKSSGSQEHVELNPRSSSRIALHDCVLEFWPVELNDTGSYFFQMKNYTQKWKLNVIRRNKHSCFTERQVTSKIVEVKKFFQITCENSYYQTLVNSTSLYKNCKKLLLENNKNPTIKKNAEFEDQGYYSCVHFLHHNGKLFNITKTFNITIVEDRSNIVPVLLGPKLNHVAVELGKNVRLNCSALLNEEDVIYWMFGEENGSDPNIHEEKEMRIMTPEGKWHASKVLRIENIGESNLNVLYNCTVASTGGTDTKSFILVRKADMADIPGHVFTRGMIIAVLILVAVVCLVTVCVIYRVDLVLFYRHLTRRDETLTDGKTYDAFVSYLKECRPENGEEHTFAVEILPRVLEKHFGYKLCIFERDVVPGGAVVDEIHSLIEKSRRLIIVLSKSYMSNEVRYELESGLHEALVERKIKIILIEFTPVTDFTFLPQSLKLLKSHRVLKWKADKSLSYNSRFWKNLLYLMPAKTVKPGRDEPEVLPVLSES
T1 sequence (looked up) 2: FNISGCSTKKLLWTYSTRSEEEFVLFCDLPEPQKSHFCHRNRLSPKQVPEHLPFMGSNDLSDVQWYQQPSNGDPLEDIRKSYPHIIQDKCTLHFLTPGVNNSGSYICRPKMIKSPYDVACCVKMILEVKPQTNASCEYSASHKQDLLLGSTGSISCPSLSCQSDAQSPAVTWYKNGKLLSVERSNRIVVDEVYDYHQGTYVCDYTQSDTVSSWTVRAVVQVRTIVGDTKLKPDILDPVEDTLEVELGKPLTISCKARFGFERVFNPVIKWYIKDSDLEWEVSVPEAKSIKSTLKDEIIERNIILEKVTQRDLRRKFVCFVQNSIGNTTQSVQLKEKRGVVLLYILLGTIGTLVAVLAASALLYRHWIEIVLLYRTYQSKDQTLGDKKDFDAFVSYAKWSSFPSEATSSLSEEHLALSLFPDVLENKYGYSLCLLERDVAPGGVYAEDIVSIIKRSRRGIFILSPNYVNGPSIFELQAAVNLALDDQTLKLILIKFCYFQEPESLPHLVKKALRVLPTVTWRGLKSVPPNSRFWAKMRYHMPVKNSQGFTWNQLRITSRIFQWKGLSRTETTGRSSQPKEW
Experiment: cell-based or functional assay
As shown below, each of these binders has a reported Activity, No BP, DF-2500000 value.

BINDER: IL-18 variant G3P, E6K, K53N, D54S, S55P, T63S, N91S, R104Q (ligand) YFPKLKSKLSVIRNLNDQVLFIDQGNRPLFEDMTDSDMRDNAPRTIFIISMYNSPQPRGMAVSISVKSEKISTLSSENKIISFKEMNPPDSIKDTKSDIIFFQQSVPGHDNKMQFESSSYEGYFLASEKERDLFKLILKKEDELGDRSIMFTVQNED
Activity, No BP, DF-2500000: 0.07

BINDER: IL-18 variant G3Q, E6H, D54N, S55I, T63S, N91V (ligand) YFQKLHSKLSVIRNLNDQVLFIDQGNRPLFEDMTDSDMRDNAPRTIFIISMYKNIQPRGMAVSISVKSEKISTLSSENKIISFKEMNPPDVIKDTKSDIIFFQRSVPGHDNKMQFESSSYEGYFLASEKERDLFKLILKKEDELGDRSIMFTVQNED
Activity, No BP, DF-2500000: 1.64

BINDER: IL-18 variant G3S, E6H, K53Y, D54P, S55Y, T63S, N91A, R104S (ligand) YFSKLHSKLSVIRNLNDQVLFIDQGNRPLFEDMTDSDMRDNAPRTIFIISMYYPYQPRGMAVSISVKSEKISTLSSENKIISFKEMNPPDAIKDTKSDIIFFQSSVPGHDNKMQFESSSYEGYFLASEKERDLFKLILKKEDELGDRSIMFTVQNED
Activity, No BP, DF-2500000: 0.07

BINDER: IL-18 variant G3Y, E6S, K53S, D54W, S55L, T63S, N91I (ligand) YFYKLSSKLSVIRNLNDQVLFIDQGNRPLFEDMTDSDMRDNAPRTIFIISMYSWLQPRGMAVSISVKSEKISTLSSENKIISFKEMNPPDIIKDTKSDIIFFQRSVPGHDNKMQFESSSYEGYFLASEKERDLFKLILKKEDELGDRSIMFTVQNED
Activity, No BP, DF-2500000: 0.1

BINDER: IL-18 variant G3P, E6V, K53A, D54W, S55P, T63S, N91L, R104K (ligand) YFPKLVSKLSVIRNLNDQVLFIDQGNRPLFEDMTDSDMRDNAPRTIFIISMYAWPQPRGMAVSISVKSEKISTLSSENKIISFKEMNPPDLIKDTKSDIIFFQKSVPGHDNKMQFESSSYEGYFLASEKERDLFKLILKKEDELGDRSIMFTVQNED
Activity, No BP, DF-2500000: 0.19
